# study-system: human recombinant HDAC6 (Homo sapiens)
# Construct: purchased Calibiochem Co. (so in the source) 382180
# Sequence (Q9UBN7 whole entry): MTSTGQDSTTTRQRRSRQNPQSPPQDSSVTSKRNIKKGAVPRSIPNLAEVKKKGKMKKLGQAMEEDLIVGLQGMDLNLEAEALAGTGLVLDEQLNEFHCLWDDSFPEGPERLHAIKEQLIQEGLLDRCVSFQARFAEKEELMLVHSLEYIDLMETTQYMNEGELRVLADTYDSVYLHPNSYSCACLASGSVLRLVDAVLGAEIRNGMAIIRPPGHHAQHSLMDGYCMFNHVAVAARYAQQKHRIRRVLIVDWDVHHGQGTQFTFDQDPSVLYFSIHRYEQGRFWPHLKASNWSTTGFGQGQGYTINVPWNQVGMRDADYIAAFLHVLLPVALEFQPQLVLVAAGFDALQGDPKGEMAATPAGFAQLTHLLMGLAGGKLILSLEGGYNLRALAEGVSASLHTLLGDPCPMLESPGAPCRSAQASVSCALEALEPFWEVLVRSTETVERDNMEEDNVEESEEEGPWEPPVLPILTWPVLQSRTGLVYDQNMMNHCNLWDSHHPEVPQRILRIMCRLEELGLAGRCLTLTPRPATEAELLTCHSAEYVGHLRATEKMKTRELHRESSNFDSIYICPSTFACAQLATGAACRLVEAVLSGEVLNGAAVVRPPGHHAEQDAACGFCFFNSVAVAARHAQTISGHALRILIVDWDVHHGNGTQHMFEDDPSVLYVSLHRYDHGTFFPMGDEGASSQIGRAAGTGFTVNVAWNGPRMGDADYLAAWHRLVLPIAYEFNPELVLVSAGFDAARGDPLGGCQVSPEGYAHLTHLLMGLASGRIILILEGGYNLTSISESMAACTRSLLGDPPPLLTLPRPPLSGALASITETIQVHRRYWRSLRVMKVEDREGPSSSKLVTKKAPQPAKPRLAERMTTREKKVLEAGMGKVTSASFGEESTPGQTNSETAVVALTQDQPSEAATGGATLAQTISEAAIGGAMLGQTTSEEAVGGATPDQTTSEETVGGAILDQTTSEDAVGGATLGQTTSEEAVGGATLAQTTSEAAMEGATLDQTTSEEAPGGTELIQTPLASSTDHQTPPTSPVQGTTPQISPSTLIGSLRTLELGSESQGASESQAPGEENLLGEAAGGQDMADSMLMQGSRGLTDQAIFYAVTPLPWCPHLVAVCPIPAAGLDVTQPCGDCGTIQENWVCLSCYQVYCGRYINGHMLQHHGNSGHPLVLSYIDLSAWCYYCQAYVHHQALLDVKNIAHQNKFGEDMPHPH
# protocol-summary: HDAC enzyme activity test, HDAC6
# Type: biochemical
# condition-set: Table 12; read-out: Inhibition ability (IC50) HDAC6
Here the recorded IC50 is given for each entry.
Provide the reading as a plain figure in nM.

Some compounds with recorded IC50:
> print(dat)
                                   compound                            study.system  observable  unit.annotation  reported.value
1  O=C(CCCCCn1c2c(c3ccccc31)C(=O)C(CN1CCC(F)(F)C1)CC2)NO (centres unmarked)  human recombinant HDAC6 (Homo sapiens)        IC50               nM            48.7
2  O=C(NO)c1ccc(Cn2c3ccccc3c3c(=O)[nH]cnc32)cc1  human recombinant HDAC6 (Homo sapiens)        IC50               nM            3.52
3  O=C(NO)c1ccc(Cn2c3c(c4ccccc42)C(=O)C(CN2CCCC2)CC3)cc1 (centres unmarked)  human recombinant HDAC6 (Homo sapiens)        IC50               nM            11.1
4  CS(=O)(=O)N1CCN(CC2CCc3c(c4ccccc4n3Cc3ccc(C(=O)NO)cc3)C2=O)CC1 (centres unmarked)  human recombinant HDAC6 (Homo sapiens)        IC50               nM             4.7
5  CN1CCN(CC2CCc3c(c4cc(F)ccc4n3Cc3ccc(C(=O)NO)cc3)C2=O)CC1 (centres unmarked)  human recombinant HDAC6 (Homo sapiens)        IC50               nM             4.7

Requested read-out: IC50. Entry: "COC[C@@H]1CCCN1CCN1CCc2c(c3cc(F)ccc3n2Cc2ccc(C(=O)NO)cc2)C1=O" 22.5

Requested read-out: IC50. Entry: CC(C)(C)OC(=O)N1CCN(CC2CCc3c(c4cc(F)ccc4n3CCCCCC(=O)NO)C2=O)CC1 (centres unmarked) 103

Requested read-out: IC50. Entry: "Cc1c2c(n(CCCCCCC(=O)NO)c1C)CCCC2=O" 22.1

----------
# study-system: Human recombinant HDAC1 (Homo sapiens, UniProt Q13547)
# Construct: purchased Enzo Life Science Co. (named for the kit; assigned to the enzyme from the BML- catalogue prefix) BML-SE456
# Sequence (Q13547 whole entry): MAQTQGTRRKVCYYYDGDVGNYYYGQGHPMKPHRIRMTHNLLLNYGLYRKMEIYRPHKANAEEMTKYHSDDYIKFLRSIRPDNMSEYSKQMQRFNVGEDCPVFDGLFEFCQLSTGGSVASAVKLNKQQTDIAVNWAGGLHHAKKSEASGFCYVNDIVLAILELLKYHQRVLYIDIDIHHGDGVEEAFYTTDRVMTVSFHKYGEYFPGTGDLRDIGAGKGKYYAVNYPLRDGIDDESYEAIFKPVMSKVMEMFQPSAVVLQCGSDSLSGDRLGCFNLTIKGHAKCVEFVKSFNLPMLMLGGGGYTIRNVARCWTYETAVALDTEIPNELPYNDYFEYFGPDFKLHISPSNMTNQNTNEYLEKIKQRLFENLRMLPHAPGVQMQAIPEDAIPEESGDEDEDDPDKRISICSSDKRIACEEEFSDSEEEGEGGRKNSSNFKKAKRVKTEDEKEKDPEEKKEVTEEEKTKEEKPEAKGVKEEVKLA
# protocol-summary: HDAC enzyme activity test, HDAC1
# Assay type: biochemical
# condition-set: Table 12; read-out: Inhibition ability (IC50) HDAC1
observable: pIC50
pIC50 here is simply -log10 of the concentration when that concentration is written in mol/L.

Some compounds with recorded pIC50:
> print(dat)
                                   compound                              study.system  observable  reported.value
1  CC1(C)Cc2c(c3ccccc3n2Cc2ccc(C(=O)NO)cc2)C(=O)C1CN1CCOCC1 (stereo not drawn)  Human recombinant HDAC1 (Homo sapiens, UniProt Q13547)       pIC50            5.20
2  CN1CCN(CC2CCc3c(c4ccccc4n3CCCCCC(=O)NO)C2=O)CC1 (stereo not drawn)  Human recombinant HDAC1 (Homo sapiens, UniProt Q13547)       pIC50            5.50
3        Cc1c2c(n(CCCCCCC(=O)NO)c1C)CCCC2=O  Human recombinant HDAC1 (Homo sapiens, UniProt Q13547)       pIC50            5.49
4  CC1(C)CC(=O)c2c(n(CCCCCC(=O)NO)c3cc(F)ccc23)C1  Human recombinant HDAC1 (Homo sapiens, UniProt Q13547)       pIC50            5.28
5  O=C(CCCCCn1c2c(c3cc(F)ccc31)C(=O)C(CN1CCOCC1)CC2)NO (stereo not drawn)  Human recombinant HDAC1 (Homo sapiens, UniProt Q13547)       pIC50            4.87
6  CC1(C)CC(=O)c2c(n(CCCCCC(=O)NO)c3c(Br)cccc23)C1  Human recombinant HDAC1 (Homo sapiens, UniProt Q13547)       pIC50            5.68
7  CC(C)(C)OC(=O)N1CCN(CC2CCc3c(c4ccccc4n3Cc3ccc(C(=O)NO)cc3)C2=O)CC1 (stereo not drawn)  Human recombinant HDAC1 (Homo sapiens, UniProt Q13547)       pIC50            5.23
8  CC(C)(C)OC(=O)N1CCN(CC2CCc3c(c4cc(F)ccc4n3CCCCCC(=O)NO)C2=O)CC1 (stereo not drawn)  Human recombinant HDAC1 (Homo sapiens, UniProt Q13547)       pIC50            4.93

Requested read-out: pIC50. Entry: Cc1nccn1CC1C(=O)c2c(n(Cc3ccc(C(=O)NO)cc3)c3ccc(F)cc23)CC1(C)C (stereo not drawn) 5.34

Requested read-out: pIC50. Entry: CCN1CCN(CC2CCc3c(c4ccccc4n3Cc3ccc(C(=O)NO)cc3)C2=O)CC1 (stereo not drawn) 5.34

Requested read-out: pIC50. Entry: "O=C(NO)c1ccc(Cn2c3ccccc3c3c(=O)[nH]cnc32)cc1" 6.81

Requested read-out: pIC50. Entry: "O=C(NO)c1ccc(Cn2c3c(c4cc(F)ccc42)C(=O)N(CCN2CCC(CO)CC2)CC3)cc1" 4.98

Requested read-out: pIC50. Entry: "CC1(C)CC(=O)c2c(n(Cc3ccc(C(=O)NO)cc3)c3cc(F)c(F)cc23)C1" 5.30

Requested read-out: pIC50. Entry: "Cc1cn(Cc2ccc(C(=O)NO)cc2)c2c1C(=O)CC(C)(C)C2" 5.49

Requested read-out: pIC50. Entry: O=C(CCCCCCn1c2c(c3cc(F)ccc31)C(=O)C(CN1CCOCC1)CC2)NO (stereo not drawn) 6.99

Requested read-out: pIC50. Entry: "Cc1nn(Cc2ccc(C(=O)NO)cc2)c2c1C(=O)CC(C)(C)C2" 5.78

Requested read-out: pIC50. Entry: "O=C(NO)c1ccc(Cn2c3c(c4cc(F)ccc42)C(=O)N(CCN2CCN(CCO)CC2)CC3)cc1" 5.12

Requested read-out: pIC50. Entry: Cc1nccn1CC1CCc2c(c3ccccc3n2Cc2ccc(C(=O)NO)cc2)C1=O (stereo not drawn) 5.59

Requested read-out: pIC50. Entry: Cc1ccc(N2CCN(CC3CCc4c(c5ccccc5n4Cc4ccc(C(=O)NO)cc4)C3=O)CC2)cc1C (stereo not drawn) 5.09

Requested read-out: pIC50. Entry: CC1CN(CC2CCc3c(c4cc(F)ccc4n3CCCCCC(=O)NO)C2=O)CC(C)O1 (stereo not drawn) 5.05

Requested read-out: pIC50. Entry: "Cc1c2c(n(Cc3ccc(C(=O)NO)cc3)c1C)CCCC2=O" 5.55

Requested read-out: pIC50. Entry: CCCCN1CCN(CC2CCc3c(c4cc(F)ccc4n3CCCCCC(=O)NO)C2=O)CC1 (stereo not drawn) 5.00

Requested read-out: pIC50. Entry: "CC1(C)CC(=O)c2c(n(CCCCCC(=O)NO)c3cc(F)c(F)cc23)C1" 5.22

Requested read-out: pIC50. Entry: "O=C(NO)c1ccc(Cn2c3c(c4cc(F)ccc42)C(=O)N(CCN2CCOCC2)CC3)cc1" 5.54

Requested read-out: pIC50. Entry: "Cc1c2c(n(CCCCCC(=O)NO)c1C)CCCC2=O" 5.88

Requested read-out: pIC50. Entry: "Cc1cn(Cc2ccc(C(=O)NO)cc2)c2c1C(=O)NCC2" 5.32

Requested read-out: pIC50. Entry: CC1(C)Cc2c(c3cc(F)ccc3n2Cc2ccc(C(=O)NO)cc2)C(=O)C1CN1CCOCC1 (stereo not drawn) 5.74

Requested read-out: pIC50. Entry: O=C(NO)c1ccc(Cn2c3c(c4ccccc42)C(=O)C(CN2CCN(C(=O)C4CC4)CC2)CC3)cc1 (stereo not drawn) 5.19

Requested read-out: pIC50. Entry: "CC1(C)CC(=O)c2c(n(CCCCCCC(=O)NO)c3c(Br)cccc23)C1" 6.18

Requested read-out: pIC50. Entry: "CC1(C)CC(=O)c2c(n(CCCCCCC(=O)NO)c3ccc(F)cc23)C1" 6.62

Requested read-out: pIC50. Entry: "O=C(NO)c1ccc(Cn2c3c(c4ccccc42)C(=O)N(CCN2CCC[C@H]2CO)CC3)cc1" 5.64

Requested read-out: pIC50. Entry: "CC1(C)CC(=O)c2c(n(Cc3ccc(C(=O)NO)cc3)c3cc(Br)ccc23)C1" 5.83

Requested read-out: pIC50. Entry: CC1CN(CC2CCc3c(c4ccccc4n3Cc3ccc(C(=O)NO)cc3)C2=O)CC(C)O1 (stereo not drawn) 6.05
